System: full length IL-2 (amino acids 1-153) fused to Gaussia Luciferase
Measurement description: Dox Induced IL2-FL-Gluc Assay
Type: cell-based
Measurement parameters: 24 hr, 293FRT/TO; read-out: 24 hr Dox Inducible IL2FLGluc 293FRT/TO: Mean IC50
Counter-ions that a name gives are not always drawn.
Readout label: IC50 (µM)

[
  {
    "Compound": "Cc1ccc(S(=O)(=O)N2CCCN(CC3CCCCC3)CCCN(S(=O)(=O)c3ccc(N(C)C)cc3)CC3(CC3)C2)cc1 [A11, hydrochloride]",
    "Unit label": "µM",
    "IC50": 0.624
  },
  {
    "Compound": "C[C@H]1CN(S(=O)(=O)c2ccc(N(C)C)cc2)CCCN(CC2CCCCC2)CCCN(S(=O)(=O)N2CCN(c3ccc(F)cc3)CC2)C1",
    "Unit label": "µM",
    "IC50": 0.232
  },
  {
    "Compound": "C[C@H]1CN(S(=O)(=O)c2ccc(N(C)C)cc2)CCCN(CC2CCCCC2)CCCN(S(=O)(=O)N2CC[C@H](c3ccccc3)C2)C1",
    "Unit label": "µM",
    "IC50": 0.377
  }
]

a = C=C1CN(S(=O)(=O)c2c(F)cc(N(C)C)cc2F)CCCN(CC2CCCCC2)CCCN(S(=O)(=O)N2CCC(c3ccccc3)CC2)C1
b = C[C@H]1CN(S(=O)(=O)c2ccc(N(C)C)cc2)CCCN(CC2CCCCC2)CCCN(S(=O)(=O)N2CCc3cc(Cl)ccc3C2)C1
Input line: Pick one: a or b . Which one has the lower reported IC50? Bench note: the answer is the label of the chosen record.
Output line: b

----------
System: target signal sequences plus 10 amino acids fused to Gaussia Luciferase
Measurement description: Transiently Expressed Dox Induced Signal Sequence-Gluc Assay
Assay type: cell-based
Measurement parameters: Target TNFR1 signal peptide +10 amino acids; read-out: Signal Sequence-Gluc potency
pIC50: −log10 of the molar value.
Readout label: pIC50

1 = C[C@H]1CN(S(=O)(=O)c2ccc(N(C)C)cc2)CCCN(CC2CCCCC2)CCCN(S(=O)(=O)N2CCc3c(C#N)cccc3C2)C1
2 = COc1cc(F)ccc1N1CCN(S(=O)(=O)N2CCCN(CC3CCCCC3)CCCN(S(=O)(=O)c3ccc(N(C)C)cc3)C[C@H](C)C2)CC1
3 = C[C@H]1CN(S(=O)(=O)c2ccc(N(C)C)cc2)CCCN(CC2CCCCC2)CCCN(S(=O)(=O)N2CCc3cc(Cl)ccc3C2)C1
Input line: Hey, quick one: sort these by pIC50, low to high? # answer = labels listed in requested order
Output line: 1, 3, 2
(1: 5.79, 3: 6.51, 2: 6.82)

----------
Measurement description: In Vitro Microsome Stability Assay (monkey)
Format: in vitro ADME
Measurement parameters: monkey liver microsomes, 30 min w/ NADPH
Readout label: Liver Microsome Stability-% Left after 30 min w/ NADPH (%) Monkey

P = C[C@H]1CN(CC2CCCCC2)C[C@H](C)CN(S(=O)(=O)N2CCc3cc(Cl)ccc3C2)C[C@@H](C)CN(S(=O)(=O)c2ccc(N(C)C)cc2)C1
Q = C=C1CN(S(=O)(=O)c2ccc(C)cc2)CCCN(CC2CCCCC2)CC(C)CN(S(=O)(=O)c2ccc(C)cc2)C1 (stereo not drawn)
R = C[C@H]1CN(S(=O)(=O)c2ccc(N(C)C)cc2)CCCN(CC2CCC2)CCCN(S(=O)(=O)N2CCc3cc(Cl)ccc3C2)C1
Input line: Could you list the above compounds by Liver Microsome Stability-% Left after 30 min w/ NADPH (%) Monkey, going from the biggest number down? # answer = labels listed in requested order
Output line: P, R, Q
(P: 46.1%, R: 0.88%, Q: 0.23%)

----------
Measurement description: In Vitro Microsome Stability Assay (rat)
Format: in vitro ADME
Measurement parameters: rat, 30 min, NADPH
Structures can show the parent of a compound that is named as a salt.
Readout label: Liver Microsome Stability-% Left after 30 min w/ NADPH (%) Rat

Study these solved cases before continuing.
[
  {
    "Compound": "CN(C)c1ccc(S(=O)(=O)N2CCCN(CC3CCCCC3)CCCN(S(=O)(=O)N3CCC(c4ccccc4)CC3)CC3(CC3)C2)cc1",
    "Observed": 43.3
  },
  {
    "Compound": "O=S(=O)(C1CCCCC1)N1CCCN(CC2CCCCC2)CCCN(S(=O)(=O)N2CCCCC2)CC2(CC2)C1",
    "Observed": 0.14
  },
  {
    "Compound": "C=C1CN(S(=O)(=O)c2ccc(N(C)C)cc2)CCCN(CC2CCCCC2)CCCN(S(=O)(=O)N2CCC(c3ccccc3)CC2)C1 [A35, hydrochloride]",
    "Observed": 30
  },
  {
    "Compound": "C[C@H]1CN(S(=O)(=O)c2ccc(N(C)C)cc2)CCCN(CC2CCCCC2)CCCN(S(=O)(=O)N2CCN(c3ccc(F)cc3)CC2)C1",
    "Observed": 41.9
  },
  {
    "Compound": "C=C1CN(S(=O)(=O)c2ccc(N(C)C)cc2)CCCN(CC2CCCCC2)CCCN(S(=O)(=O)N2CCC(c3ccc(Cl)cc3)CC2)C1",
    "Observed": 54.6
  },
  {
    "Compound": "C=C1CN(S(=O)(=O)c2ccc(N(C)C)cc2)CCCN(CC2CCCCC2)CCCN(S(=O)(=O)N2CCC[C@H](c3ccccc3)C2)C1",
    "Observed": 16.4
  }
]

I = C=C1CN(S(=O)(=O)c2ccc(N(C)C)cc2)CCCN(CC2CCCCC2)CCCN(S(=O)(=O)N2CCc3cc(Cl)ccc3C2)C1
II = C[C@H]1CN(S(=O)(=O)c2ccc(N(C)C)cc2)CCCN(CC2CCCCC2)CCCN(S(=O)(=O)N2CCC(c3ccccc3)CC2)C1
III = CN(C)c1ccc(S(=O)(=O)N2CCCN(CC3CCCCC3)CCCN(S(=O)(=O)N3CCCCCC3)CC3(CC3)C2)cc1
Input line: Put the items in sequence by Liver Microsome Stability-% Left after 30 min w/ NADPH (%) Rat, from largest down. # answer = labels listed in requested order
Output line: I, II, III
(I: 50.5%, II: 32.5%, III: 4.16%)

1 = Cc1ccc(N2CCN(S(=O)(=O)N3CCCN(CC4CCCCC4)CCCN(S(=O)(=O)c4ccc(N(C)C)cc4)C[C@H](C)C3)CC2)cc1
2 = C=C1CN(S(=O)(=O)c2ccc(N(C)C)cc2)CCCN(CC2CCCCC2)CCCN(S(=O)(=O)N2CCC(c3ccccc3Cl)CC2)C1
Input line: Pick one: 1 or 2 . Which one has the lower reported Liver Microsome Stability-% Left after 30 min w/ NADPH (%) Rat? Bench note: the answer is the label of the chosen record.
Output line: 1
(1: 50.8%, 2: 84%)

a = C=C1CN(S(=O)(=O)c2ccc(N(C)C)cc2)CCCN(CC2CCCCC2)CCCN(S(=O)(=O)N2CCC(C#N)CC2)C1
b = C[C@H]1CN(S(=O)(=O)c2ccc(N(C)C)cc2)CCCN(CC2CCCCC2)CCCN(S(=O)(=O)N2CCN(c3ncccn3)CC2)C1
Input line: Please state the entry with greater Liver Microsome Stability-% Left after 30 min w/ NADPH (%) Rat among a and b . Bench note: the answer is the label of the chosen record.
Output line: a

----------
Measurement description: In Vitro Microsome Stability Assay (monkey)
Format: in vitro ADME
Measurement parameters: monkey, 30 min, NADPH
Readout label: Liver Microsome Stability-% Left after 30 min w/ NADPH (%) Monkey

[
  {
    "Smiles entry": "C=C1CN(S(=O)(=O)c2ccc(N(C)C)cc2)CCCN(CC2CCCCC2)CCCN(S(=O)(=O)N2CCC(C#N)CC2)C1",
    "Observed": 0.11
  }
]

a = C=C1CN(S(=O)(=O)c2ccc(N(C)C)cc2)CCCN(CC2CCCCC2)CCCN(S(=O)(=O)N2CCN(c3ccccc3)C(=O)C2)C1
b = C=C1CN(S(=O)(=O)c2ccc(N(C)C)cc2)CCCN(CC2CCCCC2)CCCN(S(=O)(=O)N2CCC(Oc3ccccc3)CC2)C1
c = C=C1CN(S(=O)(=O)c2ccc(N(C)C)cc2)CCCN(CC2CCCCC2)CCCN(S(=O)(=O)N2CC=C(c3cccc(Cl)c3)CC2)C1
Input line: Put the items in sequence by Liver Microsome Stability-% Left after 30 min w/ NADPH (%) Monkey, from largest down. # answer = labels listed in requested order
Output line: c, b, a

----------
Measurement description: In Vitro Microsome Stability Assay (rat)
Format: in vitro ADME
Measurement parameters: rat liver microsomes, 30 min w/ NADPH
Readout label: Liver Microsome Stability-% Left after 30 min w/ NADPH (%) Rat

Study these solved cases before continuing.
[
  {
    "Smiles entry": "COc1cc(F)ccc1N1CCN(S(=O)(=O)N2CCCN([C@@H](C)C3CCCCC3)CCCN(S(=O)(=O)c3ccc(N(C)C)cc3)C[C@H](C)C2)C[C@H]1C",
    "Observed": 98.8
  },
  {
    "Smiles entry": "C[C@H]1CN(S(=O)(=O)c2ccc(N(C)C)cc2)CCCN(CC(C)(C)C)CCCN(S(=O)(=O)N2CCc3cc(Cl)ccc3C2)C1",
    "Observed": 19.3
  },
  {
    "Smiles entry": "C[C@H]1CN(S(=O)(=O)c2ccc(N(C)C)cc2)CCCN(CC2CCCCC2)CCCN(S(=O)(=O)N(C)Cc2ccccc2)C1",
    "Observed": 7.47
  },
  {
    "Smiles entry": "CN(C)c1ccc(S(=O)(=O)N2CCCN(CC3CCCCC3)CCCN(S(=O)(=O)N3CCc4cc(Cl)ccc4C3)C[C@H]3CC[C@@H]32)cc1",
    "Observed": 10.1
  },
  {
    "Smiles entry": "C[C@H]1CN(S(=O)(=O)c2ccc(N(C)C)cc2)CCCN(CC2CCCCC2)CCCN(S(=O)(=O)N2CCN(c3ccccc3OC(F)(F)F)CC2)C1",
    "Observed": 53.8
  },
  {
    "Smiles entry": "C[C@H]1CN(S(=O)(=O)c2ccc(N(C)C)cc2)CCCNCCCN(S(=O)(=O)N2CCc3cc(Cl)ccc3C2)C1",
    "Observed": 3.17
  }
]

A = COc1cc(F)ccc1N1CCN(S(=O)(=O)N2CCCN(CC3CCCCC3)CCCN(S(=O)(=O)c3ccc(N(C)C)cc3)C[C@H](C)C2)CC1
B = C[C@@H]1CCN(S(=O)(=O)c2ccc(N(C)C)cc2)CCCN(CC2CCCCC2)CCCN1S(=O)(=O)N1CCc2cc(Cl)ccc2C1
C = C[C@H]1CN(S(=O)(=O)c2ccc(N(C)C)cc2)CCCN(CC2CC(F)(F)C2)CCCN(S(=O)(=O)N2CCc3cc(Cl)ccc3C2)C1
Input line: Put the items in sequence by Liver Microsome Stability-% Left after 30 min w/ NADPH (%) Rat, from largest down. # answer = labels listed in requested order
Output line: A, C, B

A = Cc1cccc2c1CCN(S(=O)(=O)N1CCCN(CC3CCCCC3)CCCN(S(=O)(=O)c3ccc(N(C)C)cc3)C[C@H](C)C1)C2
B = COc1ccc(N2CCN(S(=O)(=O)N3CCCN(CC4CCCCC4)CCCN(S(=O)(=O)c4ccc(N(C)C)cc4)C[C@H](C)C3)CC2)cc1F
Input line: Pick one: A or B . Which one has the lower reported Liver Microsome Stability-% Left after 30 min w/ NADPH (%) Rat? Bench note: the answer is the label of the chosen record.
Output line: A
(A: 31.3%, B: 50.8%)

I = COc1cc(F)cc(N2CCN(S(=O)(=O)N3CCCN(CC4CCCCC4)CCCN(S(=O)(=O)c4ccc(N(C)C)cc4)C[C@H](C)C3)C[C@@H]2C)c1
II = COc1ccc(N2CCN(S(=O)(=O)N3CCCN(CC4CCCCC4)CCCN(S(=O)(=O)c4ccc(N(C)C)cc4)C[C@H](C)C3)CC2)cc1
Input line: Please state the entry with greater Liver Microsome Stability-% Left after 30 min w/ NADPH (%) Rat among I and II . Bench note: the answer is the label of the chosen record.
Output line: I
(I: 59.2%, II: 28.3%)
